target: Galectin-3 (Homo sapiens) (UniProt P17931); experiment: Binding affinity to recombinant human galectin-3 carbohydrate recognition domain expressed in Escherichia coli BL21 (DE3) cells assessed as change in enthalpy by Nano-ITC analysis
Sequence (P17931 whole entry, the tested form may be a part): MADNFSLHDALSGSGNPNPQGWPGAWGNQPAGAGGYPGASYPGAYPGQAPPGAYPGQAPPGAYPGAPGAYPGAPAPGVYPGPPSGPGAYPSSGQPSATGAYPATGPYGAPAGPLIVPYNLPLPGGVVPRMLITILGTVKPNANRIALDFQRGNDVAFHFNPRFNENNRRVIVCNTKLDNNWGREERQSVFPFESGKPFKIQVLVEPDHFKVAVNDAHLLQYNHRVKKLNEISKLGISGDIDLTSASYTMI
EXPERIMENTAL_ENDPOINT: deltaH (kJ/mol)

Known deltaH results, listed for orientation:
| COMPOUND_STRING | OBSERVED |
| --- | --- |
| OC[C@H]1O[C@@H](S[C@@H]2CO[C@H](CO)[C@H](O)[C@@H]2O)[C@H](O)[C@@H](O)[C@H]1O | -27.1 |
| COC(=O)[C@@H]1O[C@H](CO)[C@H](O)[C@H](O)[C@@H]1S[C@@H]1O[C@H](CO)[C@H](O)[C@H](O)[C@H]1O | -32.3 |

(A) NC(=O)[C@@H]1O[C@H](CO)[C@@H](O)[C@H](O)[C@@H]1S[C@@H]1O[C@H](CO)[C@H](O)[C@H](O)[C@H]1O
(B) OC[C@H]1O[C@@H](S[C@@H]2O[C@H](CO)[C@H](O)[C@H](O)[C@H]2O)[C@H](O)[C@@H](O)[C@H]1O
I'm curious whether A or B has the smaller deltaH number. Which is it? Kindly give the label for the entry you pick. A

---

target: Galectin-3 (Homo sapiens); test: Binding affinity to recombinant human galectin-3 carbohydrate recognition domain expressed in Escherichia coli BL21 (DE3) cells assessed as change in entropy by Nano-ITC analysis
EXPERIMENTAL_ENDPOINT: -TdeltaS (kcal/mol)

| COMPOUND_STRING | EXPERIMENTAL_ENDPOINT | OBSERVED |
| --- | --- | --- |
| OC[C@H]1O[C@@H](S[C@@H]2O[C@H](CO)[C@H](O)[C@H](O)[C@H]2O)[C@H](O)[C@@H](O)[C@H]1O | -TdeltaS | -1.21 |
| OC[C@H]1O[C@@H](S[C@@H]2CO[C@H](CO)[C@H](O)[C@@H]2O)[C@H](O)[C@@H](O)[C@H]1O | -TdeltaS | 0.0956 |
| NC(=O)[C@@H]1O[C@H](CO)[C@@H](O)[C@H](O)[C@@H]1S[C@@H]1O[C@H](CO)[C@H](O)[C@H](O)[C@H]1O | -TdeltaS | 1.15 |

(a) COC(=O)[C@@H]1O[C@H](CO)[C@H](O)[C@H](O)[C@@H]1S[C@@H]1O[C@H](CO)[C@H](O)[C@H](O)[C@H]1O
(b) NC(=O)[C@@H]1O[C@H](CO)[C@H](O)[C@H](O)[C@@H]1S[C@@H]1O[C@H](CO)[C@H](O)[C@H](O)[C@H]1O
Which value of -TdeltaS is numerically greater: that of a or that of b ? Kindly give the label for the entry you pick. a
